experiment: yeast display, Sf9 membrane polyspecificity reagent, FACS + sequencing; frameworks hold sequencing errors
MEASURED_METRIC: polyreactivity (PSR sort gate)

>  <CONSTRUCT_SEQUENCE>
QFQLVESGGGLVQAGGSLRLSCAASGSTFPRYAMGWYRPAPGKERELVAAISRSGTSTYYADSVKGRFTISRDNAKNTVYLQMNSLKPEDTAVYYCAAEYHPRVLYPNWYDYWGQGTQVTVSS

>  <polyreactivity (PSR sort gate)>
low polyreactivity

$$$$
>  <CONSTRUCT_SEQUENCE>
QVQLVESGGGLVQAGGRLRLSCAASGRILYLNAMGWYRQAPGKERELVAAITKSGGSTYYADSVKGRFTISRDNAKNTVYLQMNSLKPEDTAVYYCAAEWVYYDYWQRFLYIDYDYWGQGTHVTVSS

>  <polyreactivity (PSR sort gate)>
high polyreactivity

$$$$
>  <CONSTRUCT_SEQUENCE>
QVQLVESGGGLVQAGGSLRLSCAASGRIFARYAMGWYRQAPGKERELVAAIRTSGGITYYADSVKWRFTISRDNAKNTVYLQMNSLKPEDTEVYYCAADFYSYSSVKYDYWGQGTQVTVSS

>  <polyreactivity (PSR sort gate)>
low polyreactivity

$$$$
>  <CONSTRUCT_SEQUENCE>
QVQLVDSGGGIVQAGGSLRLSCAASGSTLKYNAMGWYRQAPGKERELVAAISTSGGNTYYADSVKGRFTISRDNAKNTVYLQMNSLKPEDTAVYYCAKVLGYYYYDYDSWGQGTQVTVSS

>  <polyreactivity (PSR sort gate)>
low polyreactivity

$$$$
>  <CONSTRUCT_SEQUENCE>
QVQLVESGGGSVQAGGSLRLSCAASGSIFYPYTMGWSRQAPGKERELVAVITGSGGRTYYADSVKGRFTISRDNAKNTVYLQMNSLKPEDTAVYYCNASPFTVRYYKYEYWGQGTQVTVSS

>  <polyreactivity (PSR sort gate)>
low polyreactivity

$$$$

Please give the measured polyreactivity (PSR sort gate) for this sequence: QVQLVESGGGLVQAGGSLRLSCAASGYIFIWYDMGGYRQAPGKERELVAAISGSGGSTYYADSVKGRFTISRDNAKNTVYLQMNSLKPEDTAVYYCAAVPAHFYGYDYWGQGTQVTVSS
low polyreactivity

Please give the measured polyreactivity (PSR sort gate) for this sequence: QVQLVESGGGLVQAGGSLRLSCAASGFTFTYYTMGWYRQATGKERELVAGISRSGGSTYYADSVKGRFTISRDYAKNTVYLQMNSLKPVDTAVYYCAAGSIQYRPTYTGDYWGQGTQVTVSS
high polyreactivity
